# Test system: HepG2
# Assay details: Cytotoxicity against human HepG2 cells assessed as cell viability at 10 uM incubated for 72 hrs by CellTiter-Glo luminescence based assay
# Type: functional
# Applied conditions: read-out: Activity
Below: a set of entries, each annotated with reported viability at 10 µM.

# Chemical structure, Result
rows = [
    ("O=C(/N=c1\\s[nH]c(=O)n1C[C@H](O)COC(c1ccccc1)(c1ccccc1)c1ccccc1)c1ccccc1", "91%"),
    ("CC(C)OP(=O)(COCCn1sc(NC(=O)c2ccccc2)nc1=O)OC(C)C", "103%"),
]

Req: Could you tell me which viability at 10 µM is on file for O=C(Nc1nc(=O)n(C[C@@H](CO)OCP(=O)(O)O)s1)c1ccccc1 ?
Resp: 101%

Req: Then this compound: CCOC(=O)Nc1nc(=O)n(C[C@@H](CO)OCP(=O)(O)O)s1
Resp: 99%

Req: Then this compound: CCOC(=O)Nc1nc(=O)n(C[C@@H](CO)OCP(=O)(OC(C)C)OC(C)C)s1
Resp: 101%

Req: Then this compound: Cc1cnc(-c2cnc(NCCNc3ccc(C#N)cn3)nc2-c2ccc(Cl)cc2Cl)[nH]1
Resp: 86%

Req: Then this compound: CN(C)/C=N/c1nc(=O)n(C[C@H](O)COC(c2ccccc2)(c2ccccc2)c2ccccc2)s1
Resp: 87%

Req: Then this compound: CC(C)OP(=O)(CO[C@H](CO)Cn1sc(NC(=O)c2ccccc2)nc1=O)OC(C)C
Resp: 109%

Req: Then this compound: O=C(Nc1nc(=O)[nH]s1)c1ccccc1
Resp: 99%
